Type: in vivo, human
recordedConditions: human, plasma, oral, 20 mg, tmax, severe hepatic impairment; median (min-max)
propertyName: tmax (h)

compound | propertyName | unitName | recordedNumber
Cn1cnc2c(F)c(Nc3ccc(Br)cc3Cl)c(C(=O)NOCCO)cc21 [Selumetinib] | tmax | h | 1

---

Format: in vivo, human
recordedConditions: human, plasma, oral, 50 mg, t1/2, mild hepatic impairment; arithmetic mean (SD)

compoundStructure | half-life
Cn1cnc2c(F)c(Nc3ccc(Br)cc3Cl)c(C(=O)NOCCO)cc21 | 463 min

---

Assay type: in vivo, human
recordedConditions: human, plasma, oral, 50 mg, tmax, mild hepatic impairment; median (min-max)

compoundStructure | tmax / h
Cn1cnc2c(F)c(Nc3ccc(Br)cc3Cl)c(C(=O)NOCCO)cc21 | 1.25
